Origin of values: patent US9278958B2

tested on: HeLa cervix carcinoma cells; assay: Cytostatic assay, HeLa; assay type: cell-based, human; conditions: Homo sapiens; Table 3; read-out: Cytostatic activity (μM) Hela
Measured IC50, listed per entry.
The figure you give is taken to be in µM; do not add the unit.

Task item: If you can, please state the reported IC50 value of `CCOC(=O)c1cc(CCc2ccccc2OC)sc1N` .
Reply: 45

Task item: If you can, please state the reported IC50 value of `COC(=O)c1cc(CCc2cc(OC)ccc2OC)sc1N` .
Reply: 0.83

Task item: If you can, please state the reported IC50 value of `CCOC(=O)c1cc(CCc2ccc(OC)cc2)sc1N` .
Reply: 39

Task item: If you can, please state the reported IC50 value of `COC(=O)c1cc(CCc2ccccc2)sc1N` .
Reply: 38

Task item: If you can, please state the reported IC50 value of `COC(=O)c1cc(CCc2ccsc2)sc1N` .
Reply: 36

Could you now consider this next compound?
Task item: If you can, please state the reported IC50 value of `CCOC(=O)c1cc(C#Cc2ccc(OC)cc2)sc1N` .
Reply: 42

---

test system: Caki-2 kidney carcinoma cells; experiment: Cytostatic assay, Caki-2; format: cell-based; details: Homo sapiens, Table 3
readout kind: log10 IC50 (log10 of the value in µM)
Units before log transform: µM; reported quantity: IC50; transform: log10.

Task item: If you can, please state the reported log10 IC50 value of `CCOC(=O)c1cc(CCc2cc(OC)ccc2OC)sc1N` .
Reply: 0.51

Further cases:
Task item: If you can, please state the reported log10 IC50 value of `CCOC(=O)c1cc(C#Cc2ccc(OC)cc2)sc1N` .
Reply: 1.94

Task item: If you can, please state the reported log10 IC50 value of `COC(=O)c1cc(CCc2cc(OC)ccc2OC)sc1N` .
Reply: -0.03

---

tested on: C8166 cells; assay: Cytostatic assay, C8166; type: cell-based; details: Homo sapiens, Table 2
readout kind: IC50 (µM)
The figure you give is taken to be in µM; do not add the unit.

Task item: If you can, please state the reported IC50 value of COC(=O)c1c(N)sc(CCc2cc(OC)ccc2OC)c1C [TR599] .
Reply: 110

Task item: If you can, please state the reported IC50 value of COc1ccccc1CCc1cc(C#N)c(N)s1 [TR585] .
Reply: 16

Further cases:
Task item: If you can, please state the reported IC50 value of COC(=O)c1cc(CCc2ccsc2)sc1N [TR595] .
Reply: 2.2

---

system: HepG2C3A hepatoma cells; assay: Cytostatic assay, HepG2C3A; type: cell-based; details: Homo sapiens, HepG2/C3A; Table 4
Measured log10 of IC50, listed per entry.
Units before log transform: µM; reported quantity: IC50; transform: log10.

See these solved cases before continuing.
Task item: Give recorded log10 of IC50 with HepG2C3A hepatoma cells for the following compound: `COC(=O)c1cc(CCc2ccc(OC)cc2C)sc1N`
Reply: 1.11

Task item: Give recorded log10 of IC50 with HepG2C3A hepatoma cells for the following compound: `COC(=O)c1cc(-c2ccccc2OC)sc1N`
Reply: 1.58

Task item: Give recorded log10 of IC50 with HepG2C3A hepatoma cells for the following compound: `COC(=O)c1cc(CCc2ccccn2)sc1N`
Reply: 1.84

Task item: Give recorded log10 of IC50 with HepG2C3A hepatoma cells for the following compound: `COC(=O)c1cc(CCc2cc(OC)ccc2OC)sc1N`
Reply: 0.65

Could you now consider this next compound?
Task item: Give recorded log10 of IC50 with HepG2C3A hepatoma cells for the following compound: `CCOC(=O)c1cc(CCc2ccccc2OC)sc1N`
Reply: 1.48
